Data provenance is patent US7550469B2.

biological target: cloned human dopamine D3 receptors (Homo sapiens); construct: expressed in transfected cells; membrane homogenate; experiment: [N-Methyl-3H]Spiroperidol binding to cloned human dopamine D3 receptors (Protocol 1); settings: the 17th table; read-out: D3 Ki
PROPERTY_LABEL: Ki (nM)

// worked examples, Ki included
Exercise: Sample COc1ccc(C(=O)N(Cc2ccccc2)CC2CC2CN2CCCN(c3csc4cc(F)ccc34)CC2)cc1 (racemic) [compound 830394] — what was its Ki?
Key: 10.7

Exercise: Ki lookup needed for O=C(c1cc2ccccc2s1)N(Cc1ccccc1)CC1CC1CN1CCCN(c2csc3cc(F)ccc23)CC1 (racemic) [compound 830398] , thanks.
Key: 15.9

[I] COc1cc(OC)cc(C(=O)N(Cc2ccccc2)CC2CC2CN2CCCN(c3csc4cc(F)ccc34)CC2)c1 (racemic) [compound 830396]
[II] O=C(NCC1CC1CN1CCCN(c2csc3cc(F)ccc23)CC1)c1cc2ccccc2s1 (racemic) [compound 830407]
Exercise: For the pair I and II , which entry has the numerically smaller recorded Ki? Answer by stating the label of the chosen item.
Key: II

* * *

target: cloned human dopamine D3 receptors (Homo sapiens, UniProt P35462); construct: expressed in transfected cells; membrane homogenate; assay: [N-Methyl-3H]Spiroperidol binding to cloned human dopamine D3 receptors (Protocol 1); conditions: read-out: D3K1
Sequence (P35462 whole entry): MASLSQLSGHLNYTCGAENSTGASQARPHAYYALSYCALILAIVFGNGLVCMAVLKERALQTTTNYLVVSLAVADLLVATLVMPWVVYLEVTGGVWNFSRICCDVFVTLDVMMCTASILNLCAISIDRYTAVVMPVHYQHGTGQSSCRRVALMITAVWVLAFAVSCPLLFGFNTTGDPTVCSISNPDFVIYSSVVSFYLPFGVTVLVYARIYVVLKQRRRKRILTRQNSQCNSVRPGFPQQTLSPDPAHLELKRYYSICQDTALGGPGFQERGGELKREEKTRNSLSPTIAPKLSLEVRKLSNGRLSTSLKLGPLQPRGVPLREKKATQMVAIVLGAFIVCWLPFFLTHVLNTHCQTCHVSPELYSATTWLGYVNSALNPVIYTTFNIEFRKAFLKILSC
PROPERTY_LABEL: Ki (nM)

[A] CC1(C)C(CNC(=O)c2cccc(C(F)(F)F)c2)C1CN1CCN(c2csc3cc(C(F)(F)F)ccc23)CC1 (stereo not drawn) [compound 826278]
[B] O=C(NC/C=C\CN1CCN(c2csc3cc(C(F)(F)F)ccc23)CC1)C1CCC1 [compound 826333]
[C] O=C(N[C@H](CO)CCCN1CCN(c2csc3cc(C(F)(F)F)ccc23)CC1)c1cc2ccc(Cl)cc2s1 [compound 815710]
Exercise: Form: Sort by [Ki] Order [ ascending ] I'd appreciate it if you listed the labels in the requested order.
Key: B, A, C
(B: 24 nM, A: 87 nM, C: 210 nM)

* * *

Target: cloned human dopamine D3 receptors (Homo sapiens, UniProt P35462)
Construct: expressed in transfected cells; membrane homogenate
Test: [N-Methyl-3H]Spiroperidol binding to cloned human dopamine D3 receptors (Protocol 1)
Settings: read-out: D3K1
From the text: [N-Methyl-^3H]Spiroperidol Binding to Cloned Human Dopamine D3 Receptors This assay measures the in vitro activity of compounds on cloned human dopamine (D3) receptors and predicts the direct dopamine-blocking properties of putative neuropsychiatric agents at human dopamine D3 receptors. The D3 gene was isolated from a human striatal cDNA library (Stratagene). The gene was sequenced and sub-cloned into the expression vector RC/RSV (Invitrogen). […]
PROPERTY_LABEL: Ki (nM)

[A] O=C(NCCCCCCN1CCN(c2csc3cc(C(F)(F)F)ccc23)CC1)c1ccc2ccccc2c1
[B] CC1(C)C(CNC(=O)c2cccs2)C1CN1CCN(c2csc3cc(C(F)(F)F)ccc23)CC1 (stereo not drawn)
[C] O=C(NCCCCN1CCN(c2csc3cc(C(F)(F)F)ccc23)CC1)c1ccco1
Exercise: // TODO: order the 3 compounds above by Ki, descending Response format: the labels, sorted as the prompt asks.
Key: B, C, A
(B: 58 nM, C: 6.4 nM, A: 2.8 nM)

* * *

biological target: cloned human dopamine D3 receptors (Homo sapiens, UniProt P35462); construct: expressed in transfected cells; membrane homogenate; test: [N-Methyl-3H]Spiroperidol binding to cloned human dopamine D3 receptors (Protocol 1); conditions: the 21st table; read-out: D3 Ki
PROPERTY_LABEL: Ki (nM)

Exercise: Quick one: Ki of C[C@@H]1CN(c2csc3cc(C(F)(F)F)ccc23)C[C@H](C)N1CCCCNC(=O)c1ccc(C(C)(C)C)cc1 [compound 826934] ?
Key: 227

Exercise: Which Ki is listed for C[C@@H]1CN(c2csc3cc(F)ccc23)C[C@H](C)N1CCCCNC(=O)c1cccnc1Cl [compound 826948] ?
Key: 154

Exercise: Given Cc1ccccc1C(=O)NCCCCN1[C@H](C)CN(c2csc3cc(C(F)(F)F)ccc23)C[C@@H]1C [compound 826931] , state its recorded Ki.
Key: 219

Exercise: Recorded Ki for C[C@@H]1CN(c2csc3cc(F)ccc23)C[C@H](C)N1CCCCNC(=O)c1cc2ccccc2o1 [compound 827036] , please?
Key: 51.2

Exercise: Looking for the measured Ki of Cc1ccccc1C(=O)NCCCCN1[C@H](C)CN(c2csc3cc(F)ccc23)C[C@@H]1C [compound 826941] , can you help?
Key: 36.3

Exercise: Data request, read-out Ki, for C[C@@H]1CN(c2csc3cc(F)ccc23)C[C@H](C)N1CCCCNC(=O)c1ccc(OC(F)(F)F)cc1 [compound 827049]
Key: 50.9

Exercise: Request the reported Ki associated with C[C@@H]1CN(c2csc3cc(F)ccc23)C[C@H](C)N1CCCCNC(=O)c1ccc(-c2ccccc2)cc1 [compound 826943]
Key: 12.7

Exercise: Any idea what Ki was measured for C[C@@H]1CN(c2csc3cc(C(F)(F)F)ccc23)C[C@H](C)N1CCCCNC(=O)c1cccc2[nH]ccc12 [compound 826953] ?
Key: 222

[I] COc1cc(OC)cc(C(=O)NCCCCN2[C@H](C)CN(c3csc4cc(F)ccc34)C[C@@H]2C)c1 [compound 827048]
[II] C[C@@H]1CN(c2csc3cc(C(F)(F)F)ccc23)C[C@H](C)N1CCCCNC(=O)c1cccnc1Cl [compound 826938]
Exercise: Choose between I and II : whose measured Ki value is numerically larger? Lab log: write the label of the selected item as the result.
Key: I
(I: 317 nM, II: 175 nM)

* * *

target: cloned human dopamine D3 receptors (Homo sapiens); construct: expressed in transfected cells; membrane homogenate; assay: [N-Methyl-3H]Spiroperidol binding to cloned human dopamine D3 receptors (Protocol 1); details: the 23rd table; read-out: D3 Ki
PROPERTY_LABEL: Ki (nM)

Exercise: Value lookup for Ki; key = "COc1cccc2c(C3CCN(C[C@@H]4C[C@H]4CN[C@H]4CC[C@H](C)CC4)CC3)noc12"
Key: 31.9

[a] FC(F)(F)Oc1cccc(CNC[C@@H]2C[C@H]2CN2CCN(c3csc4cc(C(F)(F)F)ccc34)CC2)c1
[b] FC(F)(F)c1ccc2c(N3CCN(C[C@@H]4C[C@H]4CNCCc4cccnc4)CC3)csc2c1
Exercise: Short answer wanted: higher Ki, a or b ? Return value: the label identifying the chosen record.
Key: a

* * *

biological target: cloned human dopamine D3 receptors (Homo sapiens); construct: expressed in transfected cells; membrane homogenate; test: [N-Methyl-3H]Spiroperidol binding to cloned human dopamine D3 receptors (Protocol 1); details: read-out: D3K1
PROPERTY_LABEL: Ki (nM)

Answered examples (5):
Exercise: Requested read-out: Ki. Entry: O=C(N[C@@H](CO)CCCN1CCN(c2csc3cc(C(F)(F)F)ccc23)CC1)c1cc2ccccc2[nH]1 [compound 815674]
Key: 314

Exercise: What does the record list as Ki for O=C(NC/C=C\CN1CCN(c2csc3cc(C(F)(F)F)ccc23)CC1)c1ccccn1 [compound 826335] ?
Key: 42

Exercise: Item O=C(NCCCCCN1CCN(c2csc3cc(C(F)(F)F)ccc23)CC1)c1ccc2ccccc2c1 [compound 826769] has what recorded Ki?
Key: 7

Exercise: What does the data say about its Ki? Entry: Cc1ccc(C(=O)N[C@@H](CO)CCCN2CCN(c3csc4cc(C(F)(F)F)ccc34)CC2)cc1 [compound 815671]
Key: 309

Exercise: Consider the compound shown here: O=C(N[C@H](CO)CCCN1CCN(c2csc3cc(C(F)(F)F)ccc23)CC1)c1ccc2[nH]ccc2c1 [compound 815700] What is its recorded Ki?
Key: 128

[A] O=C(NCCCCN1CCN(c2csc3cc(C(F)(F)F)ccc23)CC1)c1cccs1 [81708A]
[B] O=C(NCCCCCCN1CCN(c2csc3cc(C(F)(F)F)ccc23)CC1)c1cccc(C(F)(F)F)c1 [compound 826752]
Exercise: Please indicate which has the smaller reported Ki: A , or B . I would appreciate it if you answered with the label of your choice.
Key: A
(A: 4.5 nM, B: 14 nM)

* * *

target: cloned human dopamine D3 receptors (Homo sapiens, UniProt P35462); construct: expressed in transfected cells; membrane homogenate; assay: [N-Methyl-3H]Spiroperidol binding to cloned human dopamine D3 receptors (Protocol 1); conditions: the 13th table, unit inferred; read-out: D3Ki
pKi: −log10 of the molar value.
PROPERTY_LABEL: pKi

Below, 5 molecules whose answers are already recorded.
Exercise: Name the recorded pKi for "O=C(NCCCCN1CCCN(c2csc3cc(C(F)(F)F)ccc23)CC1)c1ccc(F)cc1" .
Key: 7.37

Exercise: Could you share which pKi value was measured for "COc1cc(OC)cc(C(=O)NCCCCN2CCCN(c3csc4cc(F)ccc34)CC2)c1" ?
Key: 7.96

Exercise: I would be grateful if you could share the reported pKi for "O=C(NCCCCCN1CCCN(c2csc3cc(F)ccc23)CC1)c1csnn1" .
Key: 7.40

Exercise: Fill blank: measured pKi of the molecule "COc1ccc(C(=O)NCCCCN2CCCN(c3csc4cc(C(F)(F)F)ccc34)CC2)cc1OC" is ____.
Key: 7.41

Exercise: For the molecule shown here, "O=C(NCCCCN1CCCN(c2csc3cc(C(F)(F)F)ccc23)CC1)c1cc2ccccc2o1" , give the reported pKi.
Key: 7.72

[P] O=C(NCCCCN1CCCN(c2csc3cc(C(F)(F)F)ccc23)CC1)c1n[nH]c2ccccc12
[Q] O=C(NCCCCCN1CCCN(c2csc3cc(F)ccc23)CC1)c1cc2ccccc2[nH]1
[R] O=C(NCCCCN1CCCN(c2csc3cc(F)ccc23)CC1)c1cc2cc(O)ccc2[nH]1
[S] O=C(NCCCCN1CCCN(c2csc3cc(F)ccc23)CC1)c1cc([N+](=O)[O-])cc([N+](=O)[O-])c1
Exercise: Endpoint returns the given molecules ordered by ascending pKi. Hello, could you send the labels back in the order asked? Thank you.
Key: P, Q, S, R

[1] Cc1ccccc1C(=O)NCCCCN1CCCN(c2csc3cc(C(F)(F)F)ccc23)CC1
[2] CCOc1ccc(C(=O)NCCCCN2CCC(c3noc4ccsc34)CC2)cc1
[3] CCCCc1ccc(C(=O)NCCCCCN2CCC(c3noc4ccsc34)CC2)cc1
[4] O=C(NCCCCN1CCCN(c2csc3cc(F)ccc23)CC1)c1ccc(Cl)cc1
Exercise: // sort entries: pKi, high to low Sort and list the labels as requested.
Key: 4, 1, 2, 3
(4: 8.20, 1: 7.40, 2: 6.80, 3: 6.50)

[A] O=C(NCCCCN1CCCN(c2csc3cc(C(F)(F)F)ccc23)CC1)c1c[nH]c2ccccc12
[B] Cn1c(C(=O)NCCCCCN2CCCN(c3csc4cc(F)ccc34)CC2)cc2ccccc21
Exercise: Problem: Given the entries A and B , determine which has the lower reported pKi. Reply briefly: the label of your chosen item.
Key: A

[a] COc1ccc2[nH]c(C(=O)NCCCCN3CCCN(c4csc5cc(F)ccc45)CC3)cc2c1
[b] O=C(NCCCCN1CCCN(c2csc3cc(F)ccc23)CC1)c1ccc2[nH]cnc2c1
[c] O=C(NCCCCCN1CCC(c2noc3ccsc23)CC1)c1ccc(F)cc1
[d] O=C(NCCCCN1CCCN(c2csc3cc(C(F)(F)F)ccc23)CC1)c1ccc(C(F)(F)F)cc1
[e] O=C(NCCCCCN1CCCN(c2csc3cc(F)ccc23)CC1)c1cccc(F)c1
Exercise: Please put the entries in order of rising pKi. Return the labels ranked in the requested order, please.
Key: d, c, e, b, a
(d: 6.24, c: 6.44, e: 7.59, b: 8.73, a: 8.98)
